Origin of the recorded values: patent US11236112B2

Kindly state pH value for each of the entries shown.
- measurementNotes: Solubility of different salt types in biological vehicle (SGF, FeSSIF, FaSSIF), HPLC
- Type: physicochemical
- runConditions: FeSSIF, 37° C., 24 hours, supernatant
Just the number, please, no unit attached.

Inquiry: Name the recorded pH value for Cc1ccc(S(=O)(=O)O)cc1.Cc1cccc(-c2nn3c(c2-c2ccc4ncnn4c2/C=C/C(N)=O)CCC3)n1 .
Reply text: 1.87

Inquiry: Another compound to check: Cc1cccc(-c2nn3c(c2-c2ccc4ncnn4c2/C=C/C(N)=O)CCC3)n1 [Compound of formula (I)]
Reply text: 4.95

Inquiry: Now consider Cc1cccc(-c2nn3c(c2-c2ccc4ncnn4c2/C=C/C(N)=O)CCC3)n1.Cl [Hydrochloride] and answer again.
Reply text: 4.52

Inquiry: What do you have for Cc1cccc(-c2nn3c(c2-c2ccc4ncnn4c2/C=C/C(N)=O)CCC3)n1 [Sulphate] ?
Reply text: 4.21

Inquiry: // same read-out, input: CS(=O)(=O)O.Cc1cccc(-c2nn3c(c2-c2ccc4ncnn4c2/C=C/C(N)=O)CCC3)n1
Reply text: 4.60
